assayed_system: T1, PabPolB exo- (family B DNA polymerase, exonuclease-deficient) (Pyrococcus abyssi, UniProt P0CL77 1-771, D215A)
T1 sequence: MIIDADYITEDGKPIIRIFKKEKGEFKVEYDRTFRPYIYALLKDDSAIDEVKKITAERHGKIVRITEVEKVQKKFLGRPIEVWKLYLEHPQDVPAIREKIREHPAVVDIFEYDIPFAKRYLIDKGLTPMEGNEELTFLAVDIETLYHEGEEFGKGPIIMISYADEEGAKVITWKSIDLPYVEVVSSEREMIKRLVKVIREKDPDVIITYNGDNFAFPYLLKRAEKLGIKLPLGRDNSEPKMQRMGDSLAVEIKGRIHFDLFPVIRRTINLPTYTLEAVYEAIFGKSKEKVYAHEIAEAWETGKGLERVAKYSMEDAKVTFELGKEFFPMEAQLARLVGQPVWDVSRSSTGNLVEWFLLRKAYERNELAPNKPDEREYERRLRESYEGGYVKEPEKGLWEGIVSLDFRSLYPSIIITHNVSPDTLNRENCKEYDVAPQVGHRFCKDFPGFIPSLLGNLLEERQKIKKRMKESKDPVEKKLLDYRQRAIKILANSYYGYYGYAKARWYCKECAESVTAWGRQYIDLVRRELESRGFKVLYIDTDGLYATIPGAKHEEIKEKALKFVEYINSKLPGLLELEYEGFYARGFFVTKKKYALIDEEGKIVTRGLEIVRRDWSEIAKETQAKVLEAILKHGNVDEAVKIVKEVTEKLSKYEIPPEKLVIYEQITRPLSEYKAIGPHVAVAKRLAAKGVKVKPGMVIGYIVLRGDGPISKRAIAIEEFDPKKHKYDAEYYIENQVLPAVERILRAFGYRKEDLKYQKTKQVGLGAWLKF
protocol: fluorescence anisotropy
readout_type: Kd

{"binder": "HEX-labeled primer/template 18/25 (dsDNA) DNA 1: CGCCGGGCCGAGCCGTGC DNA 2: AGGTCGTGCACGGCTCGGCCCGGCG", "experimental_result": "25 nM"}
